Assay: qHTS assay for identifying genotoxic compounds that show differential cytotoxicity against isogenic chicken DT40 cell lines with known DNA damage response pathways - wild type cell line (AID 743012); further: nearly all actives have a fitted effect of over 60% in size
Conditions: DT40 wild type chicken cells viability, CellTiter-Glo, 40 h; series mostly up to 68.4 µM
Inconclusive results are not listed. The source made the active and inactive calls. The call rests on the fitted dose curve; in most records, active means well fitted cell-killing curve with a large enough effect in the repeat runs; inconclusive means weak or mixed curves, or effect the other way; inactive means no such curve, though single readings can be large or run the other way.
Bench note: report the call from active, inactive

See these solved cases before continuing.
Write down the call the test reported for this compound. Item: `IC(I)I` inactive

// param item: `C=CCCCCCCCCCC` ; yields the recorded call inactive

Test call for this compound, please: `COc1ccc(C(=O)c2ccccc2O)c(O)c1` inactive

Now look at this entry.
# outcome recorded in this test, key = CC1(C)C(C=C(Cl)Cl)C1C(=O)OCc1cccc(Oc2ccccc2)c1 (stereo not given) inactive

Cited source: PubChem BioAssay (Tox21)
